Test system: TTR
Assay: TTR editing in primary human hepatocytes transfected with Spy Cas9 mRNA and sgRNAs (Table 13)
Format: cell-based
Conditions: primary human hepatocytes co-transfected with Spy Cas9 mRNA (SEQ ID NO:2) and sgRNAs, 12.5 nM
Strand notation (5' to 3'): a small letter for the sugar, then the base; units joined by * are phosphorothioate-linked, units joined directly phosphodiester-linked; [ ] holds rarer units or linkages, { } end groups; capitals alone tell only the bases. m = 2'-O-methyl; r = 2'-OH (RNA)
Measured Attribute: Avg % Deletion (%)
One number for each entry, in %.

Query string: What does the record list as Avg % Deletion for G000481: TTR sgRNA modified sequence, Human, SEQ ID No. 88; guide sequence of CR003345 (nucleic acid) guide: mU*mC*mU*rArGrArArCrUrUrUrGrArCrCrArUrCrArGrGrUrUrUrUrArGrAmGmCmUmAmGmAmAmAmUmAmGmCrArArGrUrUrArArArArUrArArGrGrCrUrArGrUrCrCrGrUrUrArUrCrAmAmCmUmUmGmAmAmAmAmAmGmUmGmGmCmAmCmCmGmAmGmUmCmGmGmUmGmCmU*mU*mU*mU ?
Result string: 19.77

Cited source for all entries: patent US11795460B2
